The reader will find reported normalized growth values listed item by item below.
Assay: chemical genetic growth profiling, strain panel (AID 1159580);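 also: tested at 20 µM; growth read once vehicle control cultures reached saturation at 30 °C; 1 = growth at the plate median or of vehicle wells; lower values mean less growth of the strain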
Conditions: S. cerevisiae deletion strains, growth OD, locus YLR058C, strain SHM2 (second series), hits give low values
Screen size: about 5,500 compounds; about 2,000 (36%) were called active. Another 18% or so got no clear call; they are omitted. The list shows a part of the results.
Note: the reply should be a number with no unit written.

Sample records with normalized growth:
compound	normalized growth
CC(=O)NC(CCC(=O)O)C(=O)O (stereo not given)	0.981
COC(=O)c1ccsc1N	0.983
CCc1cccc(C)c1NC(=O)CC(C)(C)CC(=O)O	0.996
CC(C)(CC(=O)O)CC(=O)Nc1cc(C(F)(F)F)cc(C(F)(F)F)c1	1.01

# context switch: different compound, same normalized growth
Data request: Give the value of normalized growth reported for the following: COc1cscc1C(N)=O
Data returned: 0.997

====

Test: chemical genetic growth profiling, strain panel (AID 1159580);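 also: tested at 20 µM; growth read once vehicle control cultures reached saturation at 30 °C; 1 = growth at the plate median or of vehicle wells; lower values mean less growth of the strain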
Details: S. cerevisiae deletion strains, growth OD, locus YNL067W, strain RPL9B, hits give low values
In all, about 5,500 compounds went through this assay and about 2,000 (36%) were called active. Roughly 18% stayed inconclusive and do not appear here. The list shows a part of the results.
recorded-metric: normalized growth
Note: the reply should be a number with no unit written.

Sample records with normalized growth:
compound	reading
O=C(O)C(O)C(O)C(O)C(O)C(=O)O (centres undefined)	1
O=C(O)CCC1NCC2CC1CN1CCCCC21 (centres undefined)	0.999
c1ccc2c(CC3=NCCN3)cccc2c1	1

Data request: Give the value of normalized growth reported for the following: O=C(O)C(O)C(O)C(=O)O (centres undefined)
Data returned: 0.993

Data request: Give the value of normalized growth reported for the following: N[C@@H](C(=O)O)[C@@H](O)[C@H](O)[C@H](O)CO
Data returned: 1.01

Data request: Give the value of normalized growth reported for the following: COc1cc2c(cc1OC)C1(O)C(=O)c3ccc(O)c(C(=O)O)c3OC1CO2 (centres undefined)
Data returned: 0.977

Data request: Give the value of normalized growth reported for the following: CC(C)(S)[C@@H](N)C(=O)O
Data returned: 0.993

Data request: Give the value of normalized growth reported for the following: Cc1cccc(C)c1NC(=O)C1CCCCN1C (centres undefined)
Data returned: 0.996

Data request: Give the value of normalized growth reported for the following: Cc1onc(-c2ccccc2)c1-c1ccc(S(N)(=O)=O)cc1
Data returned: 1

Data request: Give the value of normalized growth reported for the following: NC(C(=O)O)C(O)C(=O)O (centres undefined)
Data returned: 1.01

Data request: Give the value of normalized growth reported for the following: Clc1ccc(C(c2ccccc2Cl)C(Cl)Cl)cc1 (centres undefined)
Data returned: 0.993

Data request: Give the value of normalized growth reported for the following: C[C@]12CCC3c4ccc(OC(=O)c5ccccc5)cc4CCC3C1CCC2=O (some centres undefined)
Data returned: 1.02

Data request: Give the value of normalized growth reported for the following: Fc1ccc([C@@H]2CCNC[C@H]2COc2ccc3c(c2)OCO3)cc1
Data returned: 0.994

Data request: Give the value of normalized growth reported for the following: COC1=CC(=O)OC(CCc2ccc(OC)c(OC)c2)C1 (centres undefined)
Data returned: 1.01

====

The reader will find reported normalized growth values listed item by item below.
Assay: chemical genetic growth profiling, strain panel (AID 1159580);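 also: tested at 20 µM; growth read once vehicle control cultures reached saturation at 30 °C; 1 = growth at the plate median or of vehicle wells; lower values mean less growth of the strain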
Conditions: S. cerevisiae deletion strains, growth OD, locus YAL013W, strain DEP1, hits give low values
Hit rate of the full screen: of about 5,500 compounds, about 2,000 (36%) were called active. Inconclusive results (about 18%) are left out. The list shows a part of the results.

Sample records with normalized growth:
molecule	normalized growth
FC(F)(F)c1cc(Cl)c2nsnc2c1	1 (inactive)
Cc1ccccc1/C=C/C1=NCCN1	0.997 (inactive)

# context switch: different molecule, same normalized growth
Data request: Give the value of normalized growth reported for the following: O=C(Nc1cc(C(F)(F)F)cc(C(F)(F)F)c1)C(c1ccccc1)C1CCCC1 (stereo not drawn)
Data returned: 1.02 (inactive)
